Attribution: ChEMBL document CHEMBL1144620

assay-info: Biodistribution in urine of 9L-glioma bearing rat at 1 to 3 mCi, iv after 30 mins
Type: ADME, organism-based
conditions: in vivo, 0.5 h
measure: Drug uptake (% dose)
Numbers only, in % dose.

I am curious: what Drug uptake value has been reported for C[N+]1(C)CCOC(O)(c2ccc(-c3ccc(C4(O)C[N+](C)(C[18F])CCO4)cc3)cc2)C1.O=S(=O)([O-])C(F)(F)F.[I-] (stereo unspecified) ?
27.6

----------
assay-info: Biodistribution in urine of 9L-glioma bearing rat at 1 to 3 mCi, iv after 5 mins
Type: ADME, organism-based
conditions: in vivo
Assignment: determine reported Drug uptake for the given molecules.
Give bare numbers, in % dose.

Your task in this section: give Drug uptake for each listed record.
1. C[N+]1(C)CCOC(O)(c2ccc(-c3ccc(C4(O)C[N+](C)(C[18F])CCO4)cc3)cc2)C1.O=S(=O)([O-])C(F)(F)F.[I-] (configuration not stated)
2. C[N+]1(C)CCOC(O)(c2ccc(-c3ccc(C4(O)C[N+](C)([11CH3])CCO4)cc3)cc2)C1.O=S(=O)([O-])C(F)(F)F.[I-] (configuration not stated)

10.2
6.38
